# Tested system: POU1 (OCT1 POU domain) (human, UniProt P14859 260-458)
# Sequence (P14859 260-458): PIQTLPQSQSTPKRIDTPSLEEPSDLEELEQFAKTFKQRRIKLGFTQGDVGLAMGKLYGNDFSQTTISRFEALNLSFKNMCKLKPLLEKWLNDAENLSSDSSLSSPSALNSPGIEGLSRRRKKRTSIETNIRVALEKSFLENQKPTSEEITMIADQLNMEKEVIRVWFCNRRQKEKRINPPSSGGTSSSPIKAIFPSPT
# Protocol text: EMSA-SELEX-seq; no BOB1; 20 mM Tris-HCl pH 7.6, 140 mM NaCl, 10% glycerol, 0.5 mM EDTA, 0.05% Triton X-100, 0.1 mg/mL BSA, 0.1 mg/mL poly(dI-dC), 5 mM DTT, room temperature, 20 min; high values mean tight binding
# Test parameters: protein: recombinant; dsDNA, one strand shown
Measurement kind: binding signal

Incoming: Reported binding signal for AAATTAAC : what is it?
Outgoing: 0.334 % of ANNNNAAN 8-mers

Incoming: Okay, and AGATAAAC ?
Outgoing: 0.04 % of ANNNNAAN 8-mers

Incoming: Quick one: ATAAAAAG
Outgoing: 0.0915 % of ANNNNAAN 8-mers

Incoming: Also AACTCAAC ?
Outgoing: 0.0168 % of ANNNNAAN 8-mers

Incoming: Consider next the sequence AATTCAAG in the same way.
Outgoing: 0.101 % of ANNNNAAN 8-mers

Incoming: Now this one: ACTATAAT
Outgoing: 0.0595 % of ANNNNAAN 8-mers

Incoming: What do you get for AATGCAAG ?
Outgoing: 0.0671 % of ANNNNAAN 8-mers

Incoming: Then ATCATAAA ?
Outgoing: 0.0736 % of ANNNNAAN 8-mers

Incoming: Same thing, different sequence: AGTTCAAC
Outgoing: 0.0229 % of ANNNNAAN 8-mers

Incoming: And for AAGTTAAC ?
Outgoing: 0.0347 % of ANNNNAAN 8-mers

Incoming: Try the sequence AATGAAAT
Outgoing: 0.139 % of ANNNNAAN 8-mers

----------
Please provide measured binding signal for the entries that follow.
# Tested system: POU2 (OCT2 POU domain);BOB1 (OBF1, OCA-B) (human;human, UniProt P09086;Q16633 175-386;1-256, |)
# Sequence 1: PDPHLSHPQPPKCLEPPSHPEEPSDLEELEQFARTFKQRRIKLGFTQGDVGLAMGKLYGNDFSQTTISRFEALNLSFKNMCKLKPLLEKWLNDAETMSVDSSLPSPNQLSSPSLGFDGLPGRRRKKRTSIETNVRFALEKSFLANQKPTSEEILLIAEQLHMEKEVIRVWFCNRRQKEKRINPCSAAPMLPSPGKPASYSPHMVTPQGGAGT
# Sequence 2: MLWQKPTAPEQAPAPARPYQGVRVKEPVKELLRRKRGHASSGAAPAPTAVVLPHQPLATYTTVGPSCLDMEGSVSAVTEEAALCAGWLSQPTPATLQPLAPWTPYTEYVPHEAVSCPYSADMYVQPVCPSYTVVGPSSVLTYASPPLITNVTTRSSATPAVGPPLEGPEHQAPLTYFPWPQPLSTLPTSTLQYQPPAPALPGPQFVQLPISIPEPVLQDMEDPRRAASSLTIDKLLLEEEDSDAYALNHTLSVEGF
# Protocol text: EMSA-SELEX-seq; with BOB1 (ternary complex band); 20 mM Tris-HCl pH 7.6, 140 mM NaCl, 10% glycerol, 0.5 mM EDTA, 0.05% Triton X-100, 0.1 mg/mL BSA, 0.1 mg/mL poly(dI-dC), 5 mM DTT, room temperature, 20 min; high values mean tight binding
# Test parameters: protein: recombinant;recombinant; copies: 1;1; dsDNA, one strand shown

Incoming: Dear colleague, I am looking for the recorded binding signal of the following sequence: AATCAAAA
Outgoing: 0.0792 % of ANNNNAAN 8-mers

Incoming: Check AATGTAAC too.
Outgoing: 0.0545 % of ANNNNAAN 8-mers

Incoming: Same read-out for ACATGAAA ?
Outgoing: 0.0619 % of ANNNNAAN 8-mers

Incoming: Same for AAAGAAAA
Outgoing: 0.0693 % of ANNNNAAN 8-mers

Incoming: Moving on to ATTGAAAC
Outgoing: 0.0396 % of ANNNNAAN 8-mers

Incoming: Note, next up: ACACGAAT
Outgoing: 0.0438 % of ANNNNAAN 8-mers

Incoming: Try AAATTAAC next.
Outgoing: 0.196 % of ANNNNAAN 8-mers

Incoming: How about AAAGTAAA ?
Outgoing: 0.0759 % of ANNNNAAN 8-mers

Incoming: And what about the sequence ACGAAAAT ?
Outgoing: 0.0834 % of ANNNNAAN 8-mers

Incoming: Ok, now ATCAAAAT
Outgoing: 0.0743 % of ANNNNAAN 8-mers

Incoming: Thanks! And AATATAAT ?
Outgoing: 0.133 % of ANNNNAAN 8-mers

Incoming: Thanks! And AGAACAAT ?
Outgoing: 0.038 % of ANNNNAAN 8-mers

Incoming: Same lookup for AATACAAC , please.
Outgoing: 0.0545 % of ANNNNAAN 8-mers

Incoming: Thanks! And ACGTTAAC ?
Outgoing: 0.0289 % of ANNNNAAN 8-mers

Incoming: Check AGTAAAAA too.
Outgoing: 0.0578 % of ANNNNAAN 8-mers

Incoming: Then ACTTCAAG ?
Outgoing: 0.0256 % of ANNNNAAN 8-mers

Incoming: Likewise for ATCCCAAA ?
Outgoing: 0.0297 % of ANNNNAAN 8-mers

Incoming: Moving on to ATACGAAA
Outgoing: 0.0693 % of ANNNNAAN 8-mers

Incoming: Then AGCGCAAA ?
Outgoing: 0.0215 % of ANNNNAAN 8-mers

Incoming: Another sequence to check: ATTGTAAC
Outgoing: 0.0371 % of ANNNNAAN 8-mers

Incoming: How about this sequence: ACGTGAAC
Outgoing: 0.0206 % of ANNNNAAN 8-mers

Incoming: Cool, now ATGTGAAA
Outgoing: 0.0718 % of ANNNNAAN 8-mers

Incoming: Try the sequence ACCATAAG
Outgoing: 0.0248 % of ANNNNAAN 8-mers

Incoming: Moving on to ATGGAAAA
Outgoing: 0.147 % of ANNNNAAN 8-mers

Incoming: Item: AAGACAAA
Outgoing: 0.0438 % of ANNNNAAN 8-mers

Incoming: Queued: ACTTAAAA
Outgoing: 0.052 % of ANNNNAAN 8-mers

Incoming: Do the same for ATACCAAA please
Outgoing: 0.038 % of ANNNNAAN 8-mers

Incoming: Here is the next sequence: AACGAAAA
Outgoing: 0.0462 % of ANNNNAAN 8-mers

Incoming: Let us now turn to AATGGAAT
Outgoing: 0.147 % of ANNNNAAN 8-mers

Incoming: Next: ATAGAAAT
Outgoing: 0.0892 % of ANNNNAAN 8-mers

Incoming: Same read-out for AACCTAAC ?
Outgoing: 0.0132 % of ANNNNAAN 8-mers

Incoming: Param item: AGTAGAAC
Outgoing: 0.0239 % of ANNNNAAN 8-mers

Incoming: Request: AATTAAAA
Outgoing: 0.151 % of ANNNNAAN 8-mers

Incoming: Follow-up item: AAAGTAAG
Outgoing: 0.0834 % of ANNNNAAN 8-mers

Incoming: Entry AATGAAAC please
Outgoing: 0.0487 % of ANNNNAAN 8-mers

Incoming: One more sequence: ACCAGAAG
Outgoing: 0.0215 % of ANNNNAAN 8-mers

Incoming: AAGGGAAG , same question.
Outgoing: 0.0388 % of ANNNNAAN 8-mers

Incoming: How about this sequence: AAACAAAA
Outgoing: 0.14 % of ANNNNAAN 8-mers

Incoming: Same again, this time with ATCTGAAC
Outgoing: 0.0429 % of ANNNNAAN 8-mers

Incoming: Next entry: ACTCAAAT
Outgoing: 0.0768 % of ANNNNAAN 8-mers

Incoming: Now try ACGATAAT .
Outgoing: 0.085 % of ANNNNAAN 8-mers

Incoming: Then AACAGAAG ?
Outgoing: 0.0297 % of ANNNNAAN 8-mers

Incoming: Same thing, different sequence: ACCATAAC
Outgoing: 0.0198 % of ANNNNAAN 8-mers

Incoming: Follow-up entry: AGTCTAAC
Outgoing: 0.0231 % of ANNNNAAN 8-mers

Incoming: Now the sequence ACGAGAAC
Outgoing: 0.0165 % of ANNNNAAN 8-mers

Incoming: How about ACACAAAT ?
Outgoing: 0.0916 % of ANNNNAAN 8-mers

Incoming: Input AGATAAAT
Outgoing: 0.0627 % of ANNNNAAN 8-mers

Incoming: Input ACCTCAAA
Outgoing: 0.0256 % of ANNNNAAN 8-mers

Incoming: Another sequence to look at: ATACTAAT
Outgoing: 0.11 % of ANNNNAAN 8-mers

Incoming: Also AGTCAAAT , if possible.
Outgoing: 1.04 % of ANNNNAAN 8-mers

Incoming: ACCCGAAT , same question.
Outgoing: 0.0248 % of ANNNNAAN 8-mers

Incoming: Param item: AGGCAAAA
Outgoing: 0.204 % of ANNNNAAN 8-mers

Incoming: Now consider ACCTTAAT .
Outgoing: 0.0545 % of ANNNNAAN 8-mers

Incoming: Can you handle AGCTCAAT next?
Outgoing: 0.0223 % of ANNNNAAN 8-mers

Incoming: Try this sequence next: ATGCGAAC
Outgoing: 0.0347 % of ANNNNAAN 8-mers

Incoming: What do you have for ATTGGAAT ?
Outgoing: 0.0966 % of ANNNNAAN 8-mers

Incoming: Next: ATCCTAAC
Outgoing: 0.0355 % of ANNNNAAN 8-mers

Incoming: Proceed to AGTCTAAG
Outgoing: 0.0297 % of ANNNNAAN 8-mers

Incoming: Quick one: AAGCAAAC
Outgoing: 0.057 % of ANNNNAAN 8-mers

Recorded values, source paper PMC10812921.
